# target desc: UniProtKB P23977
# Sequence (P23977 whole entry): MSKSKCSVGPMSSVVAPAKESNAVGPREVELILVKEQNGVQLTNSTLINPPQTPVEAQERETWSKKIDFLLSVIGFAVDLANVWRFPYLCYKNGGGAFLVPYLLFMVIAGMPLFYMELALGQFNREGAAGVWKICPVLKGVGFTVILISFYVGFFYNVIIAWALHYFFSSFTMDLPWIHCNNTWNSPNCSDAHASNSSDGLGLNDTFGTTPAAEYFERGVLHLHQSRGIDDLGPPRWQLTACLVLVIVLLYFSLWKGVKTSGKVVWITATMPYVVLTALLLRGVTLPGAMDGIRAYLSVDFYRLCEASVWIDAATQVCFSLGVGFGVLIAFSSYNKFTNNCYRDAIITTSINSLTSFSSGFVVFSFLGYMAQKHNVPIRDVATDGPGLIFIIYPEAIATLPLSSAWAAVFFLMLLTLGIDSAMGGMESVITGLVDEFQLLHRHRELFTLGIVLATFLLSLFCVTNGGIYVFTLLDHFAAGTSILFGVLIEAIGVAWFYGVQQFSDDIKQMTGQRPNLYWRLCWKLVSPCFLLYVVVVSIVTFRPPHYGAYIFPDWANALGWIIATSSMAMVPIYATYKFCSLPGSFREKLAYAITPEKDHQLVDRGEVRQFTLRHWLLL
# assay protocol: DAT competitive binding, [3H]B-CFT
# run conditions: partially purified rat protein, nonspecific GBR-12,909, 0° C., 2 h, read-out: Ki of (±)-14, DAT
parameter measured: pKi
pKi field: float, defined as -log10 of concentration (mol/L).

Entry COCC1CNCCN1c1nccc2ccccc12 (racemic) [(±)-14] has what pKi?
5.80

====

Sequence of the target: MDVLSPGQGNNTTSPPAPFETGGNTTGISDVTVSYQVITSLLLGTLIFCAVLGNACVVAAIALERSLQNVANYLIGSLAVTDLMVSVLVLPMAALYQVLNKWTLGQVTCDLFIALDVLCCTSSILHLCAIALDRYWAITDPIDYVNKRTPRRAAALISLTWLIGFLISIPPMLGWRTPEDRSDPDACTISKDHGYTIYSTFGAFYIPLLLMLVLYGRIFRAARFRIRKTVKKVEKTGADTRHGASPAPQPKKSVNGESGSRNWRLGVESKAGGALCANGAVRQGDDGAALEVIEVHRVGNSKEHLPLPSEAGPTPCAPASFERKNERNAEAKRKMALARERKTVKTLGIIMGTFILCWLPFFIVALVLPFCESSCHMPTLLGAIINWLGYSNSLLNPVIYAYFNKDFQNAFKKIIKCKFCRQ
parameter measured: Ki

Name the reported Ki value associated with the molecule COCC1CNCCN1c1nccc2ccccc12 (racemic) [(±)-14]
> 10 µM

====

# target desc: SERT (Rattus norvegicus)
# Sequence (P31652 whole entry): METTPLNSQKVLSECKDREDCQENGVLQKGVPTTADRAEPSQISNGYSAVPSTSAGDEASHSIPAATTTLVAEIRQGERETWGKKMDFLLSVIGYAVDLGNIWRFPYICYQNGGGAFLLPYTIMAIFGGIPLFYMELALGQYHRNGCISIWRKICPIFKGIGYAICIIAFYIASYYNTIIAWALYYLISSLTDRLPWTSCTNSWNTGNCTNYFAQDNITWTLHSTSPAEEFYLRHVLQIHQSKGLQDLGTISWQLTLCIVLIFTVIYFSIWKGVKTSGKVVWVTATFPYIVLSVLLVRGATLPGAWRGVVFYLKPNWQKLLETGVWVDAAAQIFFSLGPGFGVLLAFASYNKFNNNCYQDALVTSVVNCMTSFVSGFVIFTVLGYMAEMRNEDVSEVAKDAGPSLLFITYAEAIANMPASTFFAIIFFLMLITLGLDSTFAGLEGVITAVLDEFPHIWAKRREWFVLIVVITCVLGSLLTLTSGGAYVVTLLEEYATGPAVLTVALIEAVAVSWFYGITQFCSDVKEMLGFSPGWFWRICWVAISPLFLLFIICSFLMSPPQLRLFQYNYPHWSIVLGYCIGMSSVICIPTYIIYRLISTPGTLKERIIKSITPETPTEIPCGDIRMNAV
parameter measured: pKi
Would you please state pKi, meaning minus log10 of the concentration in mol/L, as a bare number?

Return pKi measured with SERT (Rattus norvegicus) given this compound: COCC1CNCCN1c1nccc2ccccc12 (racemic) [(±)-14]
5.75

====

Parameter pKi, tested on NET (Rattus norvegicus, UniProt Q9WTR4), listed per item.
Sequence (Q9WTR4 1-597): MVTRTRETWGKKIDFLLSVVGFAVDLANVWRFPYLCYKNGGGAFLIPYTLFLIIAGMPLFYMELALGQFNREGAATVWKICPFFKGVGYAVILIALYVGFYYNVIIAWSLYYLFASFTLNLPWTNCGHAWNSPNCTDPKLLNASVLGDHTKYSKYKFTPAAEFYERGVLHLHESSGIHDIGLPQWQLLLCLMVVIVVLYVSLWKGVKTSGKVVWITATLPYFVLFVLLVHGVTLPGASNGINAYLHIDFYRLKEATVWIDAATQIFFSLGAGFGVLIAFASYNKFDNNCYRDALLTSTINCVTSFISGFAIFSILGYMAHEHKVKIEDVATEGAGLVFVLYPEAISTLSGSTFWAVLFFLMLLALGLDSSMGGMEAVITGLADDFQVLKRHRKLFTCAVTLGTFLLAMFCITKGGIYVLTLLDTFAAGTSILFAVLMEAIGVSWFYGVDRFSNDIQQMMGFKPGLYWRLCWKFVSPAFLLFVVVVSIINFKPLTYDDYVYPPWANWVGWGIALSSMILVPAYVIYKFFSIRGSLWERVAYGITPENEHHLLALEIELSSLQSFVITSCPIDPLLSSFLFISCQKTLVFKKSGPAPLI
Please keep in mind that pKi is minus log10 of the molar concentration; only the number is needed.

Solved cases below.
COCC1CNCCN1c1nccc2ccccc12 (racemic) [(±)-14]: 8.38
FCCCOCC1CNCCN1c1nccc2ccccc12 (racemic) [(±)-37]: 7.15

Consider the compound FCCCOC[C@@H]1CNCCN1c1nccc2ccccc12 [(S)-37] and give its measured pKi.
8.17

Values were extracted from patent US7887784B2.
